- measurement.target: T1, human CCR8 (C-C chemokine receptor type 8) expressed on cells (human, UniProt P51685 1-355)
- T1 construct: also called HuCCR8
- T1 sequence (P51685 whole entry): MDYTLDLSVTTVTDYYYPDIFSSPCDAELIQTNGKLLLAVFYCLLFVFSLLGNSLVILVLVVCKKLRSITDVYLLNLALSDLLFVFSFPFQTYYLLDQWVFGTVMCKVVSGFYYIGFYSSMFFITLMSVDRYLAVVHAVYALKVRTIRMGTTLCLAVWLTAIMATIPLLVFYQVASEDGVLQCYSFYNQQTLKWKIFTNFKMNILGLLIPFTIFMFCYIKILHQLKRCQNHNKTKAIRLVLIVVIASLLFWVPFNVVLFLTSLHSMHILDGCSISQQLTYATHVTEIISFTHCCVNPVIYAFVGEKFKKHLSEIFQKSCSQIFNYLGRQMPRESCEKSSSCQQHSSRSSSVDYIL
- measurement.protocol: on-cell affinity, flow cytometry on 293T cells expressing human CCR8
measurement.type: Kd (nM)
API: value field is a number in nM; no unit string.

{"binder": "anti-CCR8-2-8 (antibody, V domains shown, Human IgG) VH: EVQLVESGGGLVQPGRSLRLSCAASGFTFDDYAMHWVRQAPGKGLEWVSGISWNSGSIGYADSVKGRFTISRDNSKNSLYLQMNSLRAEDTALYYCARGRRSYRDSLRFDYWGQGTLVTVSS VL: QSVLTQPPSVSGAPGQRVTISCTGSGSNIGNNYVSWYQQLPGTAPKMLIYDNTRRPSGIPDRFSGSKSDTSATLGITGLQTGDEADYYCGAWDSSLRMWVFGGGTKLTVL", "readout.number": 1.5}
{"binder": "anti-CCR8-2-9 (antibody, V domains shown, Human IgG) VH: EVQLVESGGGLVQPGRSLRLSCAASGFTFDDYAMHWVRQAPGKGLEWVSGISWNSGSIGYADSVKGRFTISRDNSKNSLYLQMNSLRAEDTALYYCARGRKSYRDSLRFDYWGQGTLVTVSS VL: QSVLTQPPSVSGAPGQRVTISCTGSGSNIGNNYVSWYQQLPGTAPKMLIYDNTRRPSGIPDRFSGSKSDTSATLGITGLQTGDEADYYCGAWDSSLRMWVFGGGTKLTVL", "readout.number": 1.5}
{"binder": "anti-CCR8-2-3 (antibody, V domains shown, Human IgG from a mammalian expression vector in CHO cells; also called heavy chain H23499) VH: EVQLVESGGGLVQPGRSLRLSCAASGFTFDDYAMHWVRQAPGKGLEWVSGISWNSGSIGYADSVKGRFTISRDNSKNSLYLQMNSLRAEDTALYYCARGRKSYRDSLRFDYWGQGTLVTVSS VL: QSVLTQPPSVSAAPGQKVTISCSGSSSNIGNNYVSWYQQLPGTAPKLLIYDNNKRPSGIPDRFSGSKSGTSATLGITGLQTGDEADYYCGTWDSSLSAWVFGGGTKLT", "readout.number": 2.5}

Now take the following binder into account.
Value of measured Kd for the entry anti-CCR8-2-7 (antibody, V domains shown, Human IgG) VH: EVQLVESGGGLVQPGRSLRLSCAASGFTFDDYAMHWVRQAPGKGLEWVSGISWNSGSIGYADSVKGRFTISRDNSKNSLYLQMNSLRAEDTALYYCARGRDSYRKSLRFDYWGQGTLVTVSS VL: QSVLTQPPSVSGAPGQRVTISCTGSGSNIGNNYVSWYQQLPGTAPKMLIYDNTRRPSGIPDRFSGSKSDTSATLGITGLQTGDEADYYCGAWDSSLRMWVFGGGTKLTVL : 1.3

Data origin, for the record: patent US20210238292A1
